The measured values listed here are drawn from patent US11230526B1.

Target: Human GPR120 short form (Homo sapiens, UniProt Q5NUL3)
Construct: expressed in transfected cells
Sequence (Q5NUL3 1-361): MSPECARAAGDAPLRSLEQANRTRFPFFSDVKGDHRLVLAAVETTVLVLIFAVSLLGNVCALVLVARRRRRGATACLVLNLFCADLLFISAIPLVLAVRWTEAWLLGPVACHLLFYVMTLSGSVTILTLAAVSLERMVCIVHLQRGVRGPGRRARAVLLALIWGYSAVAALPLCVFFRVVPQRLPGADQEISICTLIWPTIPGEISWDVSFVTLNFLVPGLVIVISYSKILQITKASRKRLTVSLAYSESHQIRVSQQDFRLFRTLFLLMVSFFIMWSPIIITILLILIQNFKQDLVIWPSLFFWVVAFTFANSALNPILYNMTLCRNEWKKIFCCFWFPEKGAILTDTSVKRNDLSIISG
Assay: Human GPR120 calcium flux assay, Procedure Calcium B (4200 cells/well)
Format: cell-based
measured-endpoint: pEC50
Please note pEC50 is a logarithmic value: minus log10 of concentration in mol/L. Answer with that number alone.

A selection of reference data follows.
| molecule | observed-result |
| --- | --- |
| O=C(O)CCc1ccc(OCC2=C(C3CCC3)CC(F)(F)C2)cc1C(F)(F)F [Compound 382] | 6.20 |
| Cc1c(CCC(=O)O)ccc(OCC2=C(c3ccco3)CCC(F)(F)C2)c1C [Compound 552] | 6.81 |
| Cc1cc(OCC2=C(c3ccc(Cl)cc3)CCC(F)(F)C2)ccc1CCC(=O)O [Compound 519] | 6.65 |

The measured pEC50 associated with CCCCC1=C(COc2ccc(CCC(=O)O)c(C(F)(F)F)c2)CCCC1 [Compound 598] reads 6.40

The measured pEC50 associated with Cc1ccc(C2=C(COc3ccc(CCC(=O)O)c(C)c3C)CCCC2)cc1 [Compound 462] reads 7.18
